EXPERIMENTAL_PROTOCOL: inhibitors of TNFa-induced NFkB p65 translocation, primary screen, imaging, HUVEC, MLSMR starter and 10KST1 sets (AID 438);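 further: compound added about 3h40 before a 20 min TNFalpha stimulation; signal is the nuclear over cytoplasmic p65 intensity ratio per well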
RUN_PARAMETERS: HUVEC TNFa-induced p65 nuclear translocation; at 2 µM, active compounds read high, 0% TNFa-plus-vehicle, 100% no-TNFa wells
PROPERTY_MEASURED: inhibition (%)

INSERT INTO measurements (molecule, property_measured, test_value) VALUES
  ('Cc1nc2cc(NC(=O)N3CC4(C)CC3CC(C)(C)C4)ccc2n1C (stereo unspecified)', 'inhibition', 2.1),
  ('CCOc1cc(C2C(C#N)=C(N)OC(C)=C2C(C)=O)cc(Br)c1O (stereo unspecified)', 'inhibition', 11),
  ('O=C(Cc1ccsc1-c1ccccc1)NO', 'inhibition', -1.2),
  ('Cn1cccc1C(=O)NC(=O)CSc1nnc(C2CC2)n1-c1ccccc1', 'inhibition', -2),
  ('O=C(CNS(=O)(=O)c1ccc(Br)s1)N1CCCC1', 'inhibition', 3.7),
  ('N#Cc1c(NC(=O)CSc2nc(N)cc(=O)[nH]2)sc2c1CCCCCC2', 'inhibition', -14),
  ('CCOC(=O)N1CCC(N(C(=O)Nc2ccc(Cl)c(Cl)c2)C(C)CC)CC1 (stereo unspecified)', 'inhibition', -3.2),
  ('CCOC(=O)c1cnn(-c2ncnc3c2cnn3Cc2ccccc2)c1N', 'inhibition', -4.6),
  ('COCCn1c(SCC(=O)c2ccccc2)nc2c(c1=O)SC(C)C2 (stereo unspecified)', 'inhibition', 7.3),
  ('O=C(c1ccco1)N1CCN(C(=O)C2CCN(S(=O)(=O)c3cccc4nsnc34)CC2)CC1', 'inhibition', 9.4),
  ('Brc1ccc(-c2cn3cccnc3n2)cc1', 'inhibition', 3.4),
  ('COc1ccc(-n2c(SCC(=O)Nc3ccc(C(=O)O)cc3)nnc2-c2cccs2)cc1', 'inhibition', 2.8),
  ('CCN1CCCC1CNCc1ccc(Cl)cc1Cl (stereo unspecified)', 'inhibition', 13.6),
  ('COc1ccc(CN(C)CC(=O)c2c(N)n(Cc3ccccc3)c(=O)n(C)c2=O)c(OC)c1', 'inhibition', -21.4),
  ('COc1ccc(N2C(=O)C3CCCN3C2c2ccc(F)cc2)cc1Cl (stereo unspecified)', 'inhibition', -2.7),
  ('CCOc1ccc(OCc2ccc(C(=O)Nc3cccc(C)n3)o2)cc1', 'inhibition', -4.2),
  ('CC1CCN(C(=O)c2ccc(C(=O)N3CCC(C)CC3)cc2)CC1', 'inhibition', 4.7),
  ('COc1ccc(N2CCN(C(=O)CSc3ccccc3N)CC2)cc1', 'inhibition', -3),
  ('Cc1ccc2nc(SCC(=O)NCc3ccco3)c(C#N)cc2c1', 'inhibition', -4.7),
  ('CCOC(=O)c1c(C)oc2ccc(O)c(CN(C)C)c12', 'inhibition', 1.9),
  ('N#C[C@@H]1[C@@H]2C(=O)N(c3ccc4c(c3)OCCO4)C(=O)[C@@H]2C2c3ccccc3C=CN21 (stereo partly specified)', 'inhibition', 0.5),
  ('O=C(NCc1ccccn1)c1ccc2nc(-c3ccco3)c(-c3ccco3)nc2c1', 'inhibition', -27.2),
  ('CS(=O)(=O)N(CC(=O)N1CCCCCC1)c1ccccc1', 'inhibition', -0.2),
  ('O=C(COc1ccccc1Cl)N1CCCC1', 'inhibition', 11.7),
  ('Cc1n[nH]c(C)c1S(=O)(=O)N1CCN(c2ccccn2)CC1', 'inhibition', -8.5),
  ('O=C(COc1ccc(S(=O)(=O)N2CCCC2)cc1Cl)NC1CC1', 'inhibition', 5.7),
  ('CCN(CCNC(=O)C1CCN(S(=O)(=O)CC)CC1)c1ccccc1', 'inhibition', -14.7),
  ('O=C1CCCC2=C1C(c1ccsc1)CC(=O)N2c1ccccc1 (stereo unspecified)', 'inhibition', -11.1),
  ('CCC1(CC)C(=O)C(C)(C)C(=O)OC1c1cccs1 (stereo unspecified)', 'inhibition', -8.8),
  ('COc1ccc(CN(C(=O)c2ccccc2OC)C2CCS(=O)(=O)C2)cc1 (stereo unspecified)', 'inhibition', 2.2),
  ('Cc1ccccc1-c1noc(N)c1C#N', 'inhibition', 5.3),
  ('CCN(CC)c1ccc(NC(=O)c2[nH]c(C)c(C(C)=O)c2C)c(C)c1', 'inhibition', 7.1),
  ('COc1cc(C(=O)N2c3ccccc3CC2C)cc(OC)c1OC (stereo unspecified)', 'inhibition', 4.3),
  ('CN1C(=O)CSc2ccc(NC(=O)N3CCN(c4ccccn4)CC3)cc21', 'inhibition', -16.4),
  ('Cc1ccc(S(=O)(=O)NC(C(=O)OCC(=O)NC2CCS(=O)(=O)C2)C(C)C)cc1 (stereo unspecified)', 'inhibition', -10.1),
  ('CN(c1cccc(NC(=O)COc2ccccc2)c1)S(C)(=O)=O', 'inhibition', 7.2),
  ('Cc1ccc(NC(=O)CSc2nnc(NC(=O)CN3CCOCC3)s2)cc1', 'inhibition', -10),
  ('CCCS(=O)(=O)N1CCN(C(=O)CCC2CCCC2)CC1', 'inhibition', 8.5),
  ('COC(=O)c1nn(-c2ccc(-c3ccccc3)cc2)cc1O', 'inhibition', 6),
  ('CN1CCN(C(=O)CN(Cc2ccc(Cl)cc2)S(C)(=O)=O)CC1', 'inhibition', -2.8),
  ('CCc1cccc2c(=O)c(C(=O)NCCN3CCOCC3)c[nH]c12', 'inhibition', 8.2),
  ('Cc1oc(-c2ccccc2)cc1C(N)=O', 'inhibition', 0),
  ('CC(C)(C)Nc1nc(OCC(F)(F)F)nc(OCC(F)(F)F)n1', 'inhibition', 11.9),
  ('CCN(CC)c1ccc2c(c1)CCCN2', 'inhibition', 6.8),
  ('COc1cccc(CNC(=O)C2CCN(S(=O)(=O)c3ccc(F)cc3)CC2)c1', 'inhibition', 9.6),
  ('CCC(=O)/C=C1\Sc2ccc(OC)cc2N1CCO', 'inhibition', 2.4);
